Attribution: patent EP0513703A2

MEASUREMENT PROTOCOL: Acute toxicity, LD50 by oral route in mice (class A derivatives)
Type: in vivo
EXPERIMENTAL CONTEXT: both sexes, Swiss, in vivo, mouse, suspension in 2 % carboxymethylcellulose, observation 7 days, read-out: LD50 per os
READOUT LABEL: LD50 at 7 days

Enquiry: Item CNC(=O)Oc1ccc2c(c1)[C@]1(C)CCN(C)[C@@H]1N2C [Physostigmine, physostigmine, reference compound] has what recorded LD50 at 7 days?
Return: 4.37 mg/kg
